Target: PD-1/PD-L1 (Homo sapiens (Human))
Assay: PD-1/PD-L1 biochemical protein-protein interaction assay (ALPHA)
Conditions: 0.3 nM His tagged PD-L1, 2.5 nM biotinylated Fc-PD-1, 60 minutes at 25° C., read-out: IC50 PD-L1-PD1
measured_quantity: pIC50
In plain terms, pIC50 is the concentration in mol/L turned into minus its base-10 logarithm.

Give pIC50 for COc1nc(-c2cccc(-c3cccc(-c4cnc(CN[C@H](C)CO)c(OC)n4)c3Cl)c2Cl)cnc1CNC[C@@H]1CCC(=O)N1 [compound 347]
9.61

Give pIC50 for COc1nc(-c2cccc(-c3cccc(-c4cnc(CNC[C@H]5CCC[C@@H]5O)c(OC)n4)c3Cl)c2Cl)cnc1CNC[C@H]1CCC[C@@H]1O [compound 476]
9.21

Give pIC50 for COc1nc(-c2cccc(-c3cccc(-c4cnc(CNC5(c6ccccn6)CC5)c(OC)n4)c3Cl)c2Cl)cnc1CNC[C@@H]1CCC(=O)N1 [compound 421]
9.22

Give pIC50 for COc1nc(-c2cccc(-c3cccc(-c4cnc(CN5CC[C@H](C(=O)O)C5)c(OC)n4)c3Cl)c2Cl)cnc1CN [compound 585]
9.35

Give pIC50 for COc1nc(-c2cccc(-c3cccc(-c4cnc(CN[C@H]5CCOC5)c(OC)n4)c3Cl)c2Cl)cnc1CN[C@H]1CCOC1 [compound 144]
9.62

Give pIC50 for COc1nc(-c2cccc(-c3cccc(-c4cnc(CN5CCCC5C(C)(C)O)c(OC)n4)c3Cl)c2Cl)cnc1CNC[C@@H]1CCC(=O)N1 (stereo partly drawn) [compound 483]
9.47

Give pIC50 for COc1nc(-c2cccc(-c3cccc(-c4cnc(CNC[C@@H]5CCC(=O)N5)c(OC)n4)c3Cl)c2Cl)cnc1CNCCc1nnc[nH]1 [compound 461]
9.80

Give pIC50 for COc1nc(-c2cccc(-c3cccc(-c4cnc(CNC[C@@H]5CCC(=O)N5)c(OC)n4)c3Cl)c2Cl)cnc1CNCCC(N)=O [compound 45]
10.19

Give pIC50 for COc1nc(-c2cccc(-c3cccc(-c4cnc(CNC[C@@H]5CCC(=O)N5)c(OC)n4)c3Cl)c2Cl)cnc1CNCCc1ccccn1 [compound 417]
9.71

Give pIC50 for COc1nc(-c2cccc(-c3cccc(-c4cnc(CNC[C@H]5C[C@@](C)(O)C5)c(OC)n4)c3Cl)c2Cl)cnc1CNC[C@@H]1CCC(=O)N1 [compound 566]
9.89

Give pIC50 for COc1nc(-c2cccc(-c3cccc(-c4cnc(CNC[C@@H]5CCC(=O)N5)c(OC)n4)c3Cl)c2Cl)cnc1CNCC1CC1 [compound 179]
9.68

Give pIC50 for COc1nc(-c2cccc(-c3cccc(-c4cnc(C5=NC[C@@H](C)N5)c(OC)n4)c3Cl)c2Cl)cnc1CNC[C@@H]1CCC(=O)N1 [compound 647]
10.19

====

Target: PD-1/PD-L1 (Homo sapiens (Human), UniProt Q9NZQ7)
Sequence (Q9NZQ7 19-238): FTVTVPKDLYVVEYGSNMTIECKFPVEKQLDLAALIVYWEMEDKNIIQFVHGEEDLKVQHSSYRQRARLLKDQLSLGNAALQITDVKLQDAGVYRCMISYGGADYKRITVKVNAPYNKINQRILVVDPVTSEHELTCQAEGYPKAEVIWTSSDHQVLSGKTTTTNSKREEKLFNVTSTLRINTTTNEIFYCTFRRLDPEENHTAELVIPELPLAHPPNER
Assay: PD-1/PD-L1 biochemical protein-protein interaction assay (ALPHA)
Details: 0.3 nM His tagged PD-L1, 2.5 nM biotinylated Fc-PD-1, 60 minutes at 25° C., read-out: IC50 PD-L1-PD1
Procedure: Binding of the protein pairs is measured using a bead based Amplified Luminescent Proximity Homogeneous Assay (ALPHA) platform. […] After an assay reaction time of 60 minutes at 25° C., binding was measured with addition of 20 μg/mL ALPHA assay acceptor beads (anti-His coated) and 20 µg/mL ALPHA assay donor beads (streptavidin coated). IC50 values were calculated from the fit of the dose-response curves to a four-parameter equation.
measured_quantity: IC50 (nM)
Give the value, in units of nM, as a plain number.

Give IC50 for COc1nc(-c2cccc(-c3cccc(-c4cnc(CN[C@@H]5CCOC[C@H]5O)c(OC)n4)c3Cl)c2Cl)cnc1CNC[C@@H]1CCC(=O)N1
0.246

Give IC50 for COc1nc(-c2cccc(-c3cccc(-c4cnc(CNC[C@@H](O)CC(=O)O)c(OC)n4)c3Cl)c2Cl)cnc1CNC[C@@H](O)CC(=O)O
0.168

Give IC50 for COc1nc(-c2cccc(-c3cccc(-c4cnc(CN5CC6(CCC(=O)N6)C5)c(OC)n4)c3Cl)c2F)ccc1CN1CC2(CCC(=O)N2)C1
0.128

Give IC50 for COc1nc(-c2cccc(-c3cccc(-c4cnc(CN5CC6(CCC(=O)N6)C5)c(OC)n4)c3Br)c2F)cnc1CN1CC2(CCC(=O)N2)C1
1.78

Give IC50 for COc1nc(-c2cccc(-c3cccc(-c4cnc(CNC[C@H](C)O)c(OC)n4)c3Cl)c2Cl)cnc1CNC[C@@H]1CCC(=O)N1
0.114

Give IC50 for COc1nc(-c2cccc(-c3cccc(-c4cnc(CN[C@@H]5CCN(C6COC6)C5)c(OC)n4)c3Cl)c2Cl)cnc1CNC[C@@H]1CCC(=O)N1
0.171

Give IC50 for COc1nc(-c2cccc(-c3cccc(-c4cnc(CNC[C@@H]5CCC(=O)N5)c(OC)n4)c3Cl)c2Cl)cnc1CNCc1ccncc1
0.554

Give IC50 for COc1nc(-c2cccc(-c3cccc(-c4cnc(CN[C@H]5C[C@@H](C(N)=O)C5)c(OC)n4)c3Cl)c2Cl)ccc1CNC[C@@H]1CNC(=O)C1
0.066

Give IC50 for CNc1nc(-c2cccc(-c3cccc(-c4cnc(CNC[C@H]5C[C@H](O)C5)c(NC)n4)c3Cl)c2Cl)cnc1CNC[C@H]1C[C@H](O)C1
8.78

Give IC50 for COc1nc(-c2cccc(-c3cccc(-c4cnc(CN[C@H]5C[C@H](O)C5)c(OC)n4)c3Cl)c2Cl)cnc1CNC[C@@H]1CCC(=O)N1
0.107

Give IC50 for COC[C@H]1CCN1Cc1ncc(-c2cccc(-c3cccc(-c4cnc(CNC[C@@H]5CCC(=O)N5)c(OC)n4)c3Cl)c2Cl)nc1OC
0.178

Give IC50 for COc1nc(-c2cccc(-c3cccc(-c4cnc(CN5CC(C(C)(C)O)C5)c(OC)n4)c3Cl)c2Cl)cnc1CNC[C@@H]1CCC(=O)N1
0.122

====

Biological target: PD-1/PD-L1 (Homo sapiens (Human))
Experiment: PD-1/PD-L1 biochemical protein-protein interaction assay (ALPHA)
Settings: 0.3 nM His tagged PD-L1, 2.5 nM biotinylated Fc-PD-1, 60 minutes at 25° C., read-out: IC50 PD-L1-PD1
measured_quantity: pIC50
In plain terms, pIC50 is the concentration in mol/L turned into minus its base-10 logarithm.

Give pIC50 for COc1cc(-c2cccc(-c3cccc(-c4cnc(CNC[C@@H]5CCC(=O)N5)c(OC)n4)c3Cl)c2Cl)ccc1CNC[C@@H]1CCC(=O)N1
9.65

Give pIC50 for COc1nc(-c2cccc(-c3cccc(-c4cnc(CN[C@H]5C[C@@](C)(O)C5)c(OC)n4)c3Cl)c2Cl)cnc1CN[C@H]1C[C@@](C)(O)C1
9.57

Give pIC50 for COc1cc(-c2cccc(-c3cccc(-c4cnc(CN5CC6(CNC(=O)C6)C5)c(OC)n4)c3Cl)c2Cl)ccc1CN1CC2(CNC(=O)C2)C1
9.95

Give pIC50 for COc1nc(-c2cccc(-c3cccc(-c4cnc5c(CNC[C@@H]6CCC(=O)N6)cn(C)c5n4)c3Cl)c2Cl)cnc1CNC[C@H]1CCC(=O)N1
10.11

Give pIC50 for COc1nc(-c2cccc(-c3cccc(-c4cnc(CNC[C@H]5C[C@@H](OC)C5)c(OC)n4)c3Cl)c2Cl)cnc1CNC[C@@H]1CCC(=O)N1
9.77

Give pIC50 for COc1nc(-c2cccc(-c3cccc(-c4cnc(CNC[C@@H]5CCC(=O)N5)c(OC)n4)c3Cl)c2Cl)ccc1CN1CCC(CO)CC1
9.89

Give pIC50 for COc1nc(-c2cccc(-c3cccc(-c4cnc(CNC5CS(=O)(=O)C5)c(OC)n4)c3Cl)c2Cl)cnc1CNC[C@@H]1CCC(=O)N1
9.84

Give pIC50 for COc1nc(-c2cccc(-c3cccc(-c4cnc(CN[C@@H]5COCC[C@H]5O)c(OC)n4)c3Cl)c2Cl)cnc1CNC[C@@H]1CCC(=O)N1
9.72

Give pIC50 for COc1nc(-c2cccc(-c3cccc(-c4cnc(CN(Cc5ccccc5)C[C@@H]5CCC(=O)N5)c(OC)n4)c3Cl)c2Cl)cnc1CNC[C@@H]1CCC(=O)N1
8.73

Give pIC50 for COc1nc(-c2cccc(-c3cccc(-c4cnc(CNC[C@@H]5CCC(=O)N5)c(OC)n4)c3Cl)c2Cl)cnc1CNCCN1CCNC1=O
10.02

Give pIC50 for COc1nc(-c2cccc(-c3cccc(-c4cnc(CN5CCC(C(=O)N(C)C)C5)c(OC)n4)c3Cl)c2Cl)cnc1CNC[C@@H]1CCC(=O)N1 (stereo partly drawn)
9.52

Give pIC50 for COc1nc(-c2cccc(-c3cccc(-c4cnc(CNC5CCN(C(=O)c6ccoc6)CC5)c(OC)n4)c3Cl)c2Cl)cnc1CNC[C@@H]1CCC(=O)N1
9.71

====

Target: PD-1/PD-L1 (Homo sapiens (Human), UniProt Q9NZQ7)
Assay: PD-1/PD-L1 biochemical protein-protein interaction assay (ALPHA)
Settings: 0.3 nM His tagged PD-L1, 2.5 nM biotinylated Fc-PD-1, 60 minutes at 25° C., read-out: IC50 PD-L1-PD1
Would you kindly list IC50 for each of these compounds?
Give the value, in units of nM, as a plain number.

Give IC50 for CNc1nc(-c2cccc(-c3cccc(-c4cnc(CN5CC6(CCC(=O)N6)C5)c(OC)n4)c3Cl)c2Cl)cnc1CN1CC2(CCC(=O)N2)C1
0.16

Give IC50 for COc1nc(-c2cccc(-c3cccc(-c4cnc(CNC5CCN(C(N)=O)CC5)c(OC)n4)c3Cl)c2Cl)cnc1CNC[C@@H]1CCC(=O)N1
0.094

Give IC50 for COc1nc(-c2cccc(-c3cccc(-c4cnc(CN5C[C@H](O)[C@@H](C#N)C5)c(OC)n4)c3Cl)c2Cl)cnc1CNC[C@@H]1CCC(=O)N1
0.243

Give IC50 for COc1nc(-c2cccc(-c3cccc(-c4cnc(CN5CC(CO)C5)c(OC)n4)c3Cl)c2Cl)cnc1CNC[C@@H]1CCC(=O)N1
0.111

Give IC50 for COc1nc(-c2cccc(-c3cccc(-c4cnc(CN5CC(F)(CO)C5)c(OC)n4)c3Cl)c2Cl)cnc1CN1CC(F)(CO)C1
0.3

Give IC50 for COc1nc(-c2cccc(-c3cccc(-c4cnc(CN5CC6(C5)CN(C(C)=O)C6)c(OC)n4)c3Cl)c2Cl)cnc1CNC[C@H]1CCC(=O)N1
0.156

Give IC50 for COc1nc(-c2cccc(-c3cccc(-c4cnc(C5=NC[C@H](C)N5)c(OC)n4)c3Cl)c2Cl)cnc1C1=NC[C@H](C)N1
0.064

Give IC50 for COc1nc(-c2cccc(-c3cccc(-c4cnc(CN(C)C[C@@H]5CCC(=O)N5)c(OC)n4)c3Cl)c2Cl)cnc1CN(C)CCO
0.23

Give IC50 for COc1nc(-c2cccc(-c3cccc(-c4cnc(CN5CC6(CCC(=O)N6)C5)c(OC)n4)c3Cl)c2Cl)cnc1CN1CC2(CCC(=O)N2)C1
0.147

Give IC50 for COc1nc(-c2cccc(-c3cccc(-c4cnc(CN(C)C)c(OC)n4)c3Cl)c2Cl)cnc1CN(C)C
0.295

Give IC50 for COc1nc(-c2cccc(-c3cccc(-c4cnc(CNC[C@@H]5CCC(=O)N5)c(OC)n4)c3Cl)c2Cl)cnc1CNCC1OCCO1
0.259

Give IC50 for COc1nc(-c2cccc(-c3cccc(-c4cnc(CN[C@H](C)[C@@H]5CCC(=O)N5)c(OC)n4)c3Cl)c2Cl)cnc1CN[C@H](C)[C@@H]1CCC(=O)N1
0.196

The measured values listed here are drawn from patent US10710986B2.
